Please respond with reported GI50 for every item in the list.
# System: HOP-18
# protocol.details: NCI tumour cell line growth inhibition, 48 h
Calls of active or inactive are those of the source. Cut-off read from the data, not from the text of the source: active = GI50 up to about 1.1 µM and inactive = higher.

In plain terms, COc1cc2ccnc([C@@H](OC(=O)c3ccccc3)c3ccc(OC)c(OC)c3OC)c2cc1OC has a documented GI50 of > 100 µM (inactive)

Value of measured GI50 for the entry COc1ccc(N2C(=O)C3c4[nH]c5ccc(OC)cc5c4C4CCC(C(C)(C)C)CC4C3C2=O)cc1 (stereo not given) : 44.1 µM (inactive)

Note to self: GI50 recorded for Cn1c(C2CCCc3c2c2ccccc2n3C)cc2ccccc21 (stereo not given) was 8.02 µM (inactive)

So for C/C(=C1/CCCC2(N=NCC2c2ccccc2)C1=O)c1ccccc1 (stereo not given) , the logged GI50 turned out to be 51.1 µM (inactive)

For reference, reported GI50 for N=c1c2ccccc2sc2nc3ccccc3n12 stands at > 100 µM (inactive)

For this compound ( CCOC(=O)C(OCC1CC=CCC1)Sc1ccccc1 (stereo not given) ), measured GI50 is > 100 µM (inactive)

For this compound ( CCC(C)(O)c1cn(-c2ccc(S(=O)(=O)O)cc2)nn1 (stereo not given) ), measured GI50 is > 100 µM (inactive)

Sure, the documented GI50 for Cc1ccc(C2=NO[C@@H]3C(=O)N(c4ccc(Cc5ccc(N6C(=O)[C@H]7C(c8ccc(C)cc8)=NO[C@H]7C6=O)cc5)cc4)C(=O)[C@H]23)cc1 is > 100 µM (inactive)

The compound CCCCCCCCCCCCCCCCCC(CCCCCCCCCCCCCCCCC)OP(=O)(O)O showed GI50 equal to > 100 µM (inactive)

Measured GI50, C/C(=N\NC(N)=S)c1ccc(C)cc1C : > 100 µM (inactive)

====

Task for the reader: assign each of the following molecules its reported GI50.
# System: DU-145
# protocol.details: NCI tumour cell line growth inhibition, 48 h
Active and inactive are the calls of the source. No stated cut-off is given here; in the data, active = GI50 up to about 1.1 µM and inactive = higher.

For record CNC(=O)OCc1c(COC(=O)NC)c(C)n(-c2ccc(Br)cc2)c1C the listed GI50 is 14.3 µM (inactive)

Looking up O=[N+]([O-])c1c(F)c(F)c2c(c1F)Nc1ccccc1S2 , I found its GI50 recorded as 4.06 µM (inactive)

GI50 recorded for this molecule, CC(C)(C)OC(=O)NC1CC2(C=C(Br)C(=O)C(Br)=C2)OC1=O (centres undefined) , is 13 µM (inactive)

So for Cc1ccn2c(=O)cc(-c3ccccc3)nc2c1 , the logged GI50 turned out to be > 100 µM (inactive)

The recorded GI50 for entry O=C1Nc2ccccc2/C1=N\c1cccc2ncccc12 equals > 100 µM (inactive)

Per the record, CN(C)/C=N/S(=O)(=O)c1nn2c(C=O)c(-c3ccc(-c4ccccc4)cc3)nc2s1 has GI50 of 2.4 µM (inactive)

Measured GI50, CSc1cnn(CCC#N)c(=O)n1 : > 100 µM (inactive)

What the record says about c1ccc([P+](Cc2ccccc2C[P+](c2ccccc2)(c2ccccc2)c2ccccc2)(c2ccccc2)c2ccccc2)cc1 : GI50 is > 100 µM (inactive)

Input CCOC(=O)C#Cc1cccc(C#CC(=O)OCC)c1 . Output GI50: 6.52 µM (inactive)

Documented GI50 of COC(=O)C1=C(O)C(C(=O)OC)[C@]2(O)[C@H](C(=O)OC)[C@H]1C[C@@H](c1c(Cl)cccc1Cl)[C@H]2C(=O)OC (some centres undefined) : 2.68 µM (inactive)

Just so you know, measured GI50 for Cc1cc(C)c2c(=N)c3ccccc3n(CCCCCCCCn3c4ccccc4c(=N)c4c(C)cc(C)nc43)c2n1 came out at 1.64 µM (inactive)

Value of GI50 reported for the molecule COC(=O)CCC(C)[C@H]1CCC2C3CC[C@@H]4CC5(CC[C@]4(C)C3C[C@H](OC(C)=O)[C@@]21C)OOC1(CCCCC1)OO5 (some centres undefined) is 7.87 µM (inactive)

The reported value for O=C(c1c(Cl)cc(Cl)cc1Cl)N(Cc1cccnc1)C(=S)N(Cc1cccnc1)C(=O)c1c(Cl)cc(Cl)cc1Cl in terms of GI50 is 4.62 µM (inactive)

Per the records, this molecule ( CO[C@H]1O[C@@H]2CO[C@@H](c3ccccc3)O[C@H]2[C@@H]2CC=CCC[C@]12O ) has GI50 equal to > 100 µM (inactive)

Sample OC(CCN1CCN(CCOC(c2ccccc2)c2ccccc2)CC1)c1ccc(Br)cc1 (centres undefined) ; GI50 observed: 16 µM (inactive)

Record NC(N)=NC(P(=O)(O)O)P(=O)(O)O . Reported GI50: > 100 µM (inactive)

Briefly, GI50 measured for CC1=NN(c2nc(N)nc(/C(C#N)=C\c3csc([N+](=O)[O-])c3)n2)C(C)(C)C1 : 33.4 µM (inactive)

Recorded GI50 (molecule O=C(CP(=O)(c1ccccc1)c1ccccc1)c1cccc(C(=O)CP(=O)(c2ccccc2)c2ccccc2)c1 ): > 100 µM (inactive)

Briefly, GI50 measured for CCCn1c(SC)nc(COC(=O)NC)c1COC(=O)NC : > 100 µM (inactive)

====

# Test system: UACC-257
# protocol.details: NCI tumour cell line growth inhibition, 48 h
Active and inactive are the calls of the source. Rule as the data show it: active = GI50 up to about 1.1 µM and inactive = higher.
metric.name: GI50

// GI50 value for CCOC(=O)C(=O)/C(=C/NC(=S)c1ccncc1)C(=O)OCC : > 100 µM (inactive)

// GI50 lookup, molecule = Nc1nc(=O)c2c([nH]1)NCC(CNc1ccc(C(=O)N[C@@H](CCC(=O)O)C(=O)O)cc1)N2C=O (stereo not given in full) , result: > 125 µM (inactive)

Kindly note the recorded GI50 for C=C1C(=O)OC2CCN3CC=C(COC(=O)C(C)(O)C4(CO4)C1C)C23 (stereo not given) , which is > 100 µM (inactive)

For reference, reported GI50 for COc1ccc(/C=C2\C(=O)N(C3OC(COC(C)=O)C(OC(C)=O)C(OC(C)=O)C3OC(C)=O)c3ccccc3N=C2N)cc1 (stereo not given) stands at 24.5 µM (inactive)

For reference, reported GI50 for CCOC(=O)CCC(NC(=O)Cc1ccc(Oc2nc3ccccc3nc2-c2ccccc2)cc1)C(=O)OCC (stereo not given) stands at > 100 µM (inactive)

====

# Test system: EKVX
# protocol.details: NCI tumour cell line growth inhibition, 48 h
The source made the active and inactive calls. No stated cut-off is given here; in the data, active = GI50 up to about 1.1 µM and inactive = higher.
One label from this list, please: true for active, false for inactive

**Q:** What outcome does the record of this test show for Cc1nnc2sc(-c3ccc(-c4ccccc4Cl)o3)nn12 ?
**A:** false

**Q:** Please let me know the test result on file for O=C(/C=C/c1ccccc1)CC(=O)CCC(=O)Nc1ccc(Cl)cc1 .
**A:** false

**Q:** Entry O=C1C[C@@H]2[C@@H](C=CC23CCCC3)N1O : call = ?
**A:** false

**Q:** Call for entry CCOC(=O)C(NC(=O)c1ccccc1)(Nc1ccc(S(=O)(=O)Nc2nc(C)cc(C)n2)cc1)C(F)(F)F (stereo not given) :
**A:** false

**Q:** Which outcome did this test record for the compound CN(C)/C=N/S(=O)(=O)c1nn2c(C=O)c(-c3ccc(-c4ccccc4)cc3)nc2s1 ?
**A:** false

**Q:** Assay result, entry C1OC1CN1CCN(CC2CO2)CC1 (stereo not given) — outcome?
**A:** false

**Q:** Hello, I am checking results. What call was entered for Cc1ccc(C(=O)N/N=C(\N=N\c2ccc(C(=O)O)cc2)c2ccc(N(CCC#N)CCC#N)cc2C)cc1 ?
**A:** false

**Q:** Which outcome did this test record for the compound COC(=O)C1=C(O)C(C(=O)OC)[C@]2(O)[C@H](C(=O)OC)[C@H]1C[C@@H](c1c(Cl)cccc1Cl)[C@H]2C(=O)OC (stereo not given in full) ?
**A:** false

**Q:** Lab log entry: C1COCCN1.CN(C)c1ccc(-c2c(C#N)c(N)nc(S)c2C#N)cc1 — outcome as called in the assay?
**A:** false

**Q:** Hey, what did the test say about Nc1nc(=O)c2c([nH]1)NCC(CNc1ccc(C(=O)N[C@@H](CCC(=O)O)C(=O)O)cc1)N2C=O (stereo not given in full) ?
**A:** false

**Q:** What did the test return for Cn1c(=O)c2c(nc3sc4ccccc4c(=O)n32)n(C)c1=O ?
**A:** false

**Q:** Please let me know the test result on file for COC(=O)c1c(O)ccc2c1c1c(n2Cc2ccccc2)C(=O)c2ccccc2C1=O .
**A:** false

**Q:** Each compound tested received a call. Report the one for COC(c1ccsc1)C(C#N)(C#N)/N=C/c1ccsc1 (stereo not given) .
**A:** false

**Q:** What call does the record list for CC1=NNC(=O)[C@H]2[C@H]1CCC1[C@@H]2CC[C@]2(C)[C@@H](O)CC[C@@H]12 (stereo not given in full) ?
**A:** false

**Q:** // outcome(item) with item = N#CCCN(CCC#N)c1ccc(C(=N/c2ccc(Cl)cc2)/N=N/c2ccc(Cl)cc2)cc1
**A:** false

**Q:** Would you mind telling me which call this test gave Cc1c(C(=O)C/C(=N\O)C(=O)Nc2cc(Cl)c(Cl)cc2Cl)[n+]([O-])c2ccccc2[n+]1[O-] ?
**A:** false

**Q:** // outcome(item) with item = C/C(=N\NC(=S)NC1CCCC1)c1ccccn1
**A:** true

**Q:** Called result for O=S(O)CCCCCSSSCCCCCS(=O)O
**A:** false

**Q:** What outcome does the record of this test show for CCOC(=O)C#Cc1cccc(C#CC(=O)OCC)c1 ?
**A:** false

**Q:** Recorded test outcome, item CN1CCN(c2nc(N)c(Br)c(Cl)n2)CC1
**A:** false

**Q:** Given COC(=O)C1=C(C(=O)OC)C23CC1C1C(C(=O)OC)=C(C(=O)OC)C12C1C=CC3C2C(=O)OC(=O)C21 (stereo not given) , state the outcome it received in this test.
**A:** false

**Q:** Record lookup: outcome of this test for CCNC(=O)/C(=C/c1ccc(OC)cc1)c1cc(OC)c(OC)c(OC)c1 ?
**A:** false

**Q:** Could you check what this test reported for Cc1ccc(N/C(=C(/C(Cl)=C(Cl)Cl)[N+](=O)[O-])n2nnc3ccccc32)cc1 ?
**A:** false

**Q:** Each compound tested received a call. Report the one for CC(C)Oc1ccc2c(c1)OCC1Cc3ccccc3OC21 (stereo not given) .
**A:** false

**Q:** Recorded test outcome, item CCOC(=O)CCC(NC(=O)OCc1ccccc1)C(=O)NC(CCC(=O)OCC)C(=O)NC(CCC(=O)OCC)C(=O)NNC(=O)OC(C)(C)C (stereo not given)
**A:** false

**Q:** Status in this test for Cc1cc(NCCCCCCNc2cc(C)nc3cc(N(C)C)ccc23)c2ccc(N(C)C)cc2n1 ?
**A:** false

**Q:** What classification did C/C(=C\CO)CC/C=C(\C)CNc1c(F)c(F)c(F)c(F)c1F end up with in this test?
**A:** false

**Q:** Tell me the assay call for O=C(Nc1ccccc1)N(CCN(Cc1ccccc1)C(=O)Nc1ccccc1)CCN(Nc1ccccc1)C(=O)Nc1ccccc1 please.
**A:** false

**Q:** Per the assay record, what outcome was assigned to CC(C)(C)c1ccccc1N1C(=O)c2ccc3c4c(ccc(c24)C1=O)N(c1ccccc1C(C)(C)C)C3=O ?
**A:** false

**Q:** # outcome recorded in this test, key = CCOC(=O)/C(C#N)=C/c1coc2cc(C)cc(C)c2c1=O
**A:** false

**Q:** Recorded test outcome, item N=c1c2ccccc2sc2nc3ccccc3n12
**A:** false

**Q:** What call does the record list for Cc1cnoc1NS(=O)(=O)c1ccc(Nc2nnc(/C=C/c3c(O)ccc4ccccc34)c(=O)n2N)cc1 ?
**A:** false

**Q:** Outcome? CN1C(=O)N/C(=C\c2ccc(S(=O)(=O)N/N=C\C(O)C(O)C(O)CO)cc2)C1=O (stereo not given)
**A:** false

**Q:** // return assay outcome for Cc1ccc2c(c1)c(=O)c1c(NCCN(C)C)ccc3nnn2c31
**A:** false

**Q:** Which outcome was entered for the compound O=C(O)CCc1c2ccc(=O)c(O)c-2oc2c(O)c(O)ccc12 in this test?
**A:** false

**Q:** Which outcome did this test record for the compound CC(NC(=O)/C(=C/c1ccccc1)NC(=O)c1ccccc1)C(=O)O (stereo not given) ?
**A:** false

**Q:** Assay outcome for CSc1cnn(CCC#N)c(=O)n1 : what was it?
**A:** false

**Q:** Just curious, what result did Fc1cccc2c1cc1ccc3cccc4ccc2c1c34 get here?
**A:** false

**Q:** Status in this test for CCCc1c2c3ccccc3nc-2nc2ccccn12 ?
**A:** false

**Q:** Check the results log: what was the call for C=C(CCC(=O)N(CCc1c[nH]c2ccccc12)C(=O)c1ccccc1CSCC)C(=O)OC ?
**A:** false
